Taken from the supplement of paper PMC10126150.

Test system: ATP;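 note: ATP exposure 15 min at 22 °C before imaging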
Method Description: switch fluorescence ratio, 500 uM ATP over buffer (Cy3 cluster intensity, sum of 5 cycles each) (fold (ratio)); higher = stronger signal-on switching upon ATP binding; sequences stand for … in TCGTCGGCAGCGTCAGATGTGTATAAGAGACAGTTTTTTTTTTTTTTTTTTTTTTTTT…TC
Experimental Setup: aptamer strand: ATP DNA aptamer (quencher-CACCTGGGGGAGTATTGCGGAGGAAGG + anchor), 100 nM annealed; ATP concentration: 500 uM
Answer each item with its documented switch fluorescence ratio.

Request the reported switch fluorescence ratio associated with TTTCCAAACA 1.01

Now consider GTTTGGGGGG . 1.04

Now consider AGCGCCGCGT . 1.09

Now consider TTGGGCCCAA . 1

Now consider CGGATGCATG . 1.02

Now consider GAAGTCGTAG . 0.96

Now consider GTCATAGCGT . 0.977

Now consider AGCTGGGCCT . 1.04

Now consider GTTGAGAGTC . 0.995

Now consider GTTTCTGGAG . 1.03

Now consider ATCGGGGTGG . 1

Now consider AGGGGGTACT . 1

Now consider TAGCTTTTTT . 1

Now consider GGAATCCGGC . 1.06

Now consider TCTATGGGGG . 0.986

Now consider TTACTGCTCG . 1.01

Now consider GGGTTTGTAT . 0.979

Now consider TAAAATGGAA . 1.05

Now consider AAACGCAGGG . 1.03

Now consider TCGCTGGTTG . 0.996

Now consider AATGGGGGGA . 0.998

Now consider TTAAATCGTG . 1.01

Now consider TAAAAACGAC . 1.04

Now consider TATGGAGGTT . 0.969

Now consider GCGGGGGTCT . 1.03

Now consider TGAAAAGTTG . 0.987

Now consider GAGAGTGACA . 1.01

Now consider CAGGGGGGGG . 1.01

Now consider ACGGCATTTG . 1.05

Now consider TCTGAGTAGG . 1

Now consider GAATTATCTA . 0.996

Now consider TATGGCATCG . 0.99

Now consider ACGCCTGGTC . 1.01

Now consider AACGACGATC . 1.11

Now consider TATGTTGTGT . 0.96

Now consider AGAATCGAGT . 1.01

Now consider CGGATTGAAG . 1.01

Now consider GCTATTGGAA . 0.993

Now consider GGAAAAGAGA . 1.01

Now consider CTTTGGCTTC . 0.988

Now consider CATTGGTGTG . 0.985

Now consider CTGTTTAAGT . 1

Now consider CGGAGGGATC . 1.12
